Data provenance: patent US20090156577A1

Recorded measurements of MIC, one per entry
Test system: pathogenic bacteria
ASSAY_REMARKS: MIC by microdilution broth method (NCCLS M7-A4), in vitro antibacterial activity
Format: cell-based
SETUP_CONDITIONS: Staphylococcus aureus, Organism A: Staphylococcus aureus OC4172; read-out: MIC
Counter-ions that a name gives are not always drawn.
Give your result in µg/mL as a bare value.

>  <COMPOUND>
CC(CN)=C1CN(c2c(F)cc3c(=O)c(C(=O)O)cn4c3c2OC[C@@H]4C)C1

>  <ASSAYED_SYSTEM>
pathogenic bacteria

>  <QUANTITY_KIND>
MIC

>  <RECORDED_NUMBER>
4

$$$$
>  <COMPOUND>
CC(CN)=C1CCN(c2c(F)cc3c(=O)c(C(=O)O)cn4c3c2OCC4C)CC1 (stereo not shown)

>  <ASSAYED_SYSTEM>
pathogenic bacteria

>  <QUANTITY_KIND>
MIC

>  <RECORDED_NUMBER>
0.5

$$$$
>  <COMPOUND>
C[C@H]1COc2c(N3CC(=CCN)C3)c(F)cc3c(=O)c(C(=O)O)cn1c23

>  <ASSAYED_SYSTEM>
pathogenic bacteria

>  <QUANTITY_KIND>
MIC

>  <RECORDED_NUMBER>
0.12

$$$$
>  <COMPOUND>
CC(C)NCC(F)=C1CCN(c2cc3c(cc2F)c(=O)c(C(=O)O)cn3C2CC2)CC1

>  <ASSAYED_SYSTEM>
pathogenic bacteria

>  <QUANTITY_KIND>
MIC

>  <RECORDED_NUMBER>
1

$$$$
>  <COMPOUND>
CC(CN)=C1CCN(c2cc3c(cc2F)c(=O)c(C(=O)O)cn3C2CC2)CC1

>  <ASSAYED_SYSTEM>
pathogenic bacteria

>  <QUANTITY_KIND>
MIC

>  <RECORDED_NUMBER>
0.12

$$$$
>  <COMPOUND>
CC(CN)=C1CN(c2c(F)cc3c(=O)c(C(=O)O)cn(-c4nc(N)c(F)cc4F)c3c2Cl)C1

>  <ASSAYED_SYSTEM>
pathogenic bacteria

>  <QUANTITY_KIND>
MIC

>  <RECORDED_NUMBER>
0.06

$$$$

Query: Using the record for `CCC(CN)=C1CCN(c2nc3c(cc2F)c(=O)c(C(=O)O)cn3C2CC2)CC1` , state its measured MIC.
Result: 0.06

Query: Using the record for `NCC(F)=C1CN(c2c(F)cc3c(=O)c(C(=O)O)cn(C4CC4)c3c2OC(F)F)C1` , state its measured MIC.
Result: 0.06

Query: Using the record for `NC/C=C1\CCCN(c2nc3c(cc2F)c(=O)c(C(=O)O)cn3C2CC2)C1` , state its measured MIC.
Result: 0.25

Query: Using the record for `COc1c(N2CCC(=C(Br)CN)CC2)c(F)cc2c(=O)c(C(=O)O)cn(C3CC3)c12` , state its measured MIC.
Result: 0.25

Query: Using the record for COc1c(N2CCC(=C(F)CNC(C)C)CC2)c(F)cc2c(=O)c(C(=O)O)cn(C3CC3)c12 [Compound 252, trifluoroacetic acid salt] , state its measured MIC.
Result: 0.5

Query: Using the record for `NC/C(Cl)=C1/CCCN(c2c(F)cc3c(=O)c(C(=O)O)cn(-c4nc(N)c(F)cc4F)c3c2Cl)C1` , state its measured MIC.
Result: 0.12

Query: Using the record for `CC(CN)=C1CCN(c2nc3c(cc2F)c(=O)c(C(=O)O)cn3C2CC2)CC1` , state its measured MIC.
Result: 0.06

Query: Using the record for `NC/C(F)=C1\CCCN(c2nc3c(cc2F)c(=O)c(C(=O)O)cn3C2CC2)C1` , state its measured MIC.
Result: 0.06

Query: Using the record for `O=C(O)c1cn(C2CC2)c2nc(N3CC(=C(Cl)CO)C3)c(F)cc2c1=O` , state its measured MIC.
Result: 0.25
